Taken from patent US12534493B2.

System: single-stranded RNA: 5′-r(ACGAGAACAUCC)-3′ (SEQ ID NO: 11)
Experiment: Melting temperature (Tm) measurement, double strand-forming ability, with single-stranded RNA
Format: binding
Details: duplex with single-stranded RNA SEQ ID NO: 11; change per modification vs natural oligonucleotide
Measured ΔTm/mod. by item

substance 5′-GGATGZTCTCGT-3′: modified oligonucleotide with one Z modification; Z not defined in the visible text (DNA GGATGTTCTCGT; Z modified nucleotide; misc_difference (6)..(6) ENA) , ΔTm/mod. observed: +6.0 °C

substance 5′-GGATGXXCTCGT-3′: modified oligonucleotide with two consecutive X modifications (DNA GGATGTTCTCGT; DNA oligonucleotide with modified nucleotide X, X not given here, further chemistry not given here) , ΔTm/mod. observed: +7.0 °C

substance 5′-GGAYGYTCTCGT-3′: modified oligonucleotide with two separated Y modifications (DNA GGATGTTCTCGT; two Y modified nucleotides; misc_difference (4)..(4) LNA; misc_difference (6)..(6) LNA) , ΔTm/mod. observed: +6.5 °C

New cases:
substance 5′-GGAXGXTCTCGT-3′: modified oligonucleotide with two separated X modifications (DNA GGATGTTCTCGT; DNA oligonucleotide with modified nucleotide X, X not given here, further chemistry not given here) , ΔTm/mod. observed: +7.0 °C

substance 5′-GGATGZZCTCGT-3′: modified oligonucleotide with two consecutive Z modifications (DNA GGATGTTCTCGT; two Z modified nucleotides; misc_difference (6)..(6) ENA; misc_difference (7)..(7) ENA) , ΔTm/mod. observed: +6.0 °C

substance 5′-GGATGXTCTCGT-3′: modified oligonucleotide with one X modification; X not defined in the visible text (DNA GGATGTTCTCGT; DNA oligonucleotide with modified nucleotide X, X not given here, further chemistry not given here) , ΔTm/mod. observed: +6.0 °C

substance 5′-GGATGYYCTCGT-3′: modified oligonucleotide with two consecutive Y modifications (DNA GGATGTTCTCGT; two Y modified nucleotides; misc_difference (6)..(6) LNA; misc_difference (7)..(7) LNA) , ΔTm/mod. observed: +6.0 °C

substance 5′-GGATGYTCTCGT-3′: modified oligonucleotide with one Y modification; Y not defined in the visible text (DNA GGATGTTCTCGT; Y modified nucleotide; misc_difference (6)..(6) LNA) , ΔTm/mod. observed: +6.0 °C

substance 5′-GGAZGZTCTCGT-3′: modified oligonucleotide with two separated Z modifications (DNA GGATGTTCTCGT; two Z modified nucleotides; misc_difference (4)..(4) ENA; misc_difference (6)..(6) ENA) , ΔTm/mod. observed: +6.5 °C
